# EXPERIMENTAL_SYSTEM: UniProt Q9NR96
# ASSAY_PROCEDURE: TLR9 inhibition reporter assay (HEK-Blue SEAP)
# ASSAY_SETUP: read-out: TLR9 IC50; HEK-Blue cells overexpressing human TLR9, ODN2006 5 nM stimulation, SEAP reporter
pIC50: −log10 of the molar value.
We begin with a simple list: items and their reported pIC50.
REPORTED_PROPERTY: pIC50

> print(dat)
                                    compound  experimental.system  reading.qualifier  recorded.result
 1  COc1cc(-c2[nH]c3cnc(C4CCC(N(C)C(C)C)C4)cc3c2C(C)C)cn2ncnc12 (stereo not shown) [Example 145]       UniProt Q9NR96                  =             6.30
 2  COc1cc(-c2[nH]c3cnc(C4CCC(NCC(C)(C)OC)C4)cc3c2C(C)C)cn2ncnc12 (stereo not shown) [Example 123]       UniProt Q9NR96                  =             5.95
 3  COc1cc(-c2[nH]c3cnc(N4CCC(N(C)CC(C)(C)C)CC4)c(F)c3c2C(C)C)cn2ncnc12 [Example 47]       UniProt Q9NR96                  =             5.59
 4  CNC(=O)CN1CCN(c2ncc3[nH]c(-c4cc(OC)c5ncnn5c4)c(C(C)C)c3c2F)CC1 [Example 359]       UniProt Q9NR96                  <             4.30
 5  Cc1cc(-c2[nH]c3cnc(C4CCC(NC5(C)COC5)CC4)c(F)c3c2C(C)C)cn2ncnc12 (stereo not shown) [Example 81]       UniProt Q9NR96                  =             5.66
 6  CNC(=O)CN1CCN(c2ncc3[nH]c(-c4cn5ncnc5c(C)c4C)c(C(C)C)c3c2C)CC1 [Example 413]       UniProt Q9NR96                  <             4.30
 7  CCN(C)C1CCN(c2ncc3[nH]c(-c4cn5ncnc5c(C)c4C)c(C(C)C)c3c2C)CC1 [Example 55]       UniProt Q9NR96                  =             6.11
 8  COc1cc(-c2[nH]c3cnc(N4CCC(NC5CCOC5)CC4)c(F)c3c2C(C)C)cn2ncnc12 (stereo not shown) [Example 103]       UniProt Q9NR96                  =             5.23
 9  COc1cc(-c2[nH]c3cnc(N4CCC(NC5CCOCC5)CC4)c(C)c3c2C(C)C)cn2ncnc12 [Example 201]       UniProt Q9NR96                  =             5.75
10  Cc1cc(-c2[nH]c3cnc(C4CCC(N5CCC5)CC4)c(F)c3c2C(C)C)cn2ncnc12 (stereo not shown) [Example 109]       UniProt Q9NR96                  =             5.78
11  Cc1cc(-c2[nH]c3cnc(C4CCNCC4)cc3c2C(C)C)cn2ncnc12 [Example 4]       UniProt Q9NR96                  =             4.88
12  Cc1c(-c2[nH]c3cnc(C4CCC(NC5COC5)CC4)cc3c2C(C)C)cn2ncnc2c1C (stereo not shown) [Example 334]       UniProt Q9NR96                  =             6.34
13  COc1cc(-c2[nH]c3cnc(N4CCN(C5COC5)CC4)c(F)c3c2C(C)C)cn2ncnc12 [Example 382]       UniProt Q9NR96                  <             4.30
14  Cc1c(-c2[nH]c3cnc(N4CCC(NC(C)C)CC4)c(C)c3c2C(C)C)cn2ncnc2c1C [Example 113]       UniProt Q9NR96                  =             6.29
15  COc1cc(-c2[nH]c3cnc(N4CC5(C4)CN(C4COC4)C5)c(F)c3c2C(C)C)cn2ncnc12 [Example 369]       UniProt Q9NR96                  <             4.30
16  Cc1cc(-c2[nH]c3cnc(C4CCN(CC(=O)N(C)C)CC4)cc3c2C(C)C)cn2ncnc12 [Example 299]       UniProt Q9NR96                  =             6.45

---

Listed below: IC50 values for each entry.
# EXPERIMENTAL_SYSTEM: human TLR9 (Homo sapiens (Human))
# Sequence (Q9NR96 26-1032): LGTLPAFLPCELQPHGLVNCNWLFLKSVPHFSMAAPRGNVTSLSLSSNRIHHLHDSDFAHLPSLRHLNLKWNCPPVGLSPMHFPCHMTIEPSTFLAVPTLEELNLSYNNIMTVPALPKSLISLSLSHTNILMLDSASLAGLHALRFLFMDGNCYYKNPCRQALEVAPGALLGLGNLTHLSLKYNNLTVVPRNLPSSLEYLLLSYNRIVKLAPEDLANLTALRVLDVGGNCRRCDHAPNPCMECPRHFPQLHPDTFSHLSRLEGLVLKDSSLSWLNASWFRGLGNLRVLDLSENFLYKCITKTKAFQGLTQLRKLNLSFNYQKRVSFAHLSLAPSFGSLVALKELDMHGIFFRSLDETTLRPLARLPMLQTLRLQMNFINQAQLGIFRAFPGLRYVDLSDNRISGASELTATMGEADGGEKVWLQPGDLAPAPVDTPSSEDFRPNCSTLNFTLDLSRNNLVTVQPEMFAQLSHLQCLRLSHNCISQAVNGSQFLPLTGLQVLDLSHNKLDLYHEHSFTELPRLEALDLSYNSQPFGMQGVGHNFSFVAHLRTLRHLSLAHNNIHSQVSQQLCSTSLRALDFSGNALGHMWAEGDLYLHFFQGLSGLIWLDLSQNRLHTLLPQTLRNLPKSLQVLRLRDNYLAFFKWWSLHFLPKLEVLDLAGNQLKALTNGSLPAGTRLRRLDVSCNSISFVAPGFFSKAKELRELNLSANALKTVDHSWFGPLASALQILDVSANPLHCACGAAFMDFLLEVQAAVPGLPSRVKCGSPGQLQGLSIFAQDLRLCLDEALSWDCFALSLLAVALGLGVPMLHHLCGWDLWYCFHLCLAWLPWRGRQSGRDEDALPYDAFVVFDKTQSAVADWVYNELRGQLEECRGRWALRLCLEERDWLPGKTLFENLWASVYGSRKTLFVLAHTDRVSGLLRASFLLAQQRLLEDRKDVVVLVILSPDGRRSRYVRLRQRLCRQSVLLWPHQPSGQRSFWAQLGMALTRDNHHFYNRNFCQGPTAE
# ASSAY_PROCEDURE: TLR9 inhibition reporter assay (HEK-Blue SEAP);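 also: SEAP driven by IFN-β minimal promoter carrying five NF-κB and AP-1 sites, 22 h at 37 °C, compounds 0.05 nM–50 µM, inhibition scaled between agonist-plus-DMSO and reference-inhibitor wells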
# ASSAY_SETUP: read-out: TLR9 IC50; HEK-Blue cells overexpressing human TLR9, ODN2006 5 nM stimulation, SEAP reporter
REPORTED_PROPERTY: IC50 (nM)

> print(dat)
                                   molecule                experimental.system  reported.property  reading.qualifier  recorded.result
1  Cc1c(-c2[nH]c3cnc(N4CCN(C(=O)CN5CCOCC5)CC4)c(F)c3c2C(C)C)cn2ncnc2c1C  human TLR9 (Homo sapiens (Human))               IC50                  >            50000
2  COc1cc(-c2[nH]c3cnc(C4CCC(NCC(C)(C)C)C4)cc3c2C(C)C)cn2ncnc12 (stereo not shown) [Example 144]  human TLR9 (Homo sapiens (Human))               IC50                  =             1250
3  COc1cc(-c2[nH]c3cnc(N4CC5(C4)CN(C4CCOCC4)C5)c(F)c3c2C(C)C)cn2ncnc12  human TLR9 (Homo sapiens (Human))               IC50                  =            10300
4  COc1cc(-c2[nH]c3cnc(C4CCC(NCC5(C)COC5)C4)cc3c2C(C)C)cn2ncnc12 (stereo not shown) [Example 275]  human TLR9 (Homo sapiens (Human))               IC50                  =              845

---

# EXPERIMENTAL_SYSTEM: human TLR7 (Homo sapiens (Human), UniProt Q9NYK1)
# Sequence (Q9NYK1 27-1049): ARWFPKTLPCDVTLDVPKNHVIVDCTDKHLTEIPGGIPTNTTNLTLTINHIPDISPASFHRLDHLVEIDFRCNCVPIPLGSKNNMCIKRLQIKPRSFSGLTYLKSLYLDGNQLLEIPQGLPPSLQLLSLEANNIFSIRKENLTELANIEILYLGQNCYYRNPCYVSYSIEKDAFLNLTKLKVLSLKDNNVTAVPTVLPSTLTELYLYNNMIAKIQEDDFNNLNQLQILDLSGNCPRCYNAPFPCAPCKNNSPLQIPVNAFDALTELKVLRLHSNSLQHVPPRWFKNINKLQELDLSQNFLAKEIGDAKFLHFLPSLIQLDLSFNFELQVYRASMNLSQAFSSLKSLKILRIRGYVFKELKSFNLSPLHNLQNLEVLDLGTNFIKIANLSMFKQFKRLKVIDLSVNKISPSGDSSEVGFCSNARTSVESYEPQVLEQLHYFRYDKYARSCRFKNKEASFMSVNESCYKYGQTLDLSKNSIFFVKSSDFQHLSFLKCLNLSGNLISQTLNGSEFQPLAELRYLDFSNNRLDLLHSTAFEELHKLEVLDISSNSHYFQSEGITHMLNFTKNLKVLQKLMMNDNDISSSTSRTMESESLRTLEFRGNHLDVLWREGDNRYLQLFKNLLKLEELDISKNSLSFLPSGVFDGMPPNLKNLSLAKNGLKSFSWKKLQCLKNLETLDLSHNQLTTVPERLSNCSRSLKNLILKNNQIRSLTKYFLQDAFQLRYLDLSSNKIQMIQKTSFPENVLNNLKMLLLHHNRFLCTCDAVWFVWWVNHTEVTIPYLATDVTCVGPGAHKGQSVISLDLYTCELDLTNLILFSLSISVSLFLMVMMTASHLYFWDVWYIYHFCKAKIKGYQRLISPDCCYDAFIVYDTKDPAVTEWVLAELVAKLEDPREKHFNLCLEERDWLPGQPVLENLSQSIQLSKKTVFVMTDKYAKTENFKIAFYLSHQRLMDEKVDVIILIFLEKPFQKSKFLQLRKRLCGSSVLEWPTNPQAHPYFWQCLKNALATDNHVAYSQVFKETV
# ASSAY_PROCEDURE: TLR7 inhibition reporter assay (HEK-Blue SEAP)
# ASSAY_SETUP: HEK-Blue cells overexpressing human TLR7, gardiquimod 7.5 μM stimulation
Please assign criterion not met whenever IC50 is at or above 3 nM, and criterion met whenever it is below.

> print(dat)
                                   compound           category
1  COc1cc(-c2[nH]c3cnc(C4CCC(NC5COC5)C4)cc3c2C(C)C)cn2ncnc12 (centres unmarked) [Example 274]  criterion not met
2  COc1cc(-c2[nH]c3cnc(C4CCC(NC(C)C)CC4)cc3c2C(C)C)cn2ncnc12 (centres unmarked) [Example 323]  criterion not met
3  Cc1c(-c2[nH]c3cnc(C4CCC(NCC(C)(C)O)CC4)c(C)c3c2C(C)C)cn2ncnc2c1C (centres unmarked) [Example 92]  criterion not met
4  COc1cc(-c2[nH]c3cnc(C4CCC(N(C)C(C)C)CC4)c(F)c3c2C(C)C)cn2ncnc12 (centres unmarked) [Example 76]      criterion met
5  COCCN1CCN(c2ncc3[nH]c(-c4cn5ncnc5c(C)c4C)c(C(C)C)c3c2F)[C@H](C)C1 [Example 472]  criterion not met
6  Cc1c(-c2[nH]c3cnc(N4CCC(N5CCC5)CC4)c(F)c3c2C(C)C)cn2ncnc2c1C [Example 51]      criterion met
7  Cc1cc(-c2[nH]c3cnc(C4CCN(C5COC5)CC4)c(F)c3c2C(C)C)cn2ncnc12 [Example 182]  criterion not met
8  Cc1c(-c2[nH]c3cnc(N4CCN(C5COC5)C[C@H]4C)c(F)c3c2C(C)C)cn2ncnc2c1C [Example 457]  criterion not met

---

# EXPERIMENTAL_SYSTEM: human TLR8 (Homo sapiens (Human), UniProt Q9NR97)
# Sequence (Q9NR97 27-1041): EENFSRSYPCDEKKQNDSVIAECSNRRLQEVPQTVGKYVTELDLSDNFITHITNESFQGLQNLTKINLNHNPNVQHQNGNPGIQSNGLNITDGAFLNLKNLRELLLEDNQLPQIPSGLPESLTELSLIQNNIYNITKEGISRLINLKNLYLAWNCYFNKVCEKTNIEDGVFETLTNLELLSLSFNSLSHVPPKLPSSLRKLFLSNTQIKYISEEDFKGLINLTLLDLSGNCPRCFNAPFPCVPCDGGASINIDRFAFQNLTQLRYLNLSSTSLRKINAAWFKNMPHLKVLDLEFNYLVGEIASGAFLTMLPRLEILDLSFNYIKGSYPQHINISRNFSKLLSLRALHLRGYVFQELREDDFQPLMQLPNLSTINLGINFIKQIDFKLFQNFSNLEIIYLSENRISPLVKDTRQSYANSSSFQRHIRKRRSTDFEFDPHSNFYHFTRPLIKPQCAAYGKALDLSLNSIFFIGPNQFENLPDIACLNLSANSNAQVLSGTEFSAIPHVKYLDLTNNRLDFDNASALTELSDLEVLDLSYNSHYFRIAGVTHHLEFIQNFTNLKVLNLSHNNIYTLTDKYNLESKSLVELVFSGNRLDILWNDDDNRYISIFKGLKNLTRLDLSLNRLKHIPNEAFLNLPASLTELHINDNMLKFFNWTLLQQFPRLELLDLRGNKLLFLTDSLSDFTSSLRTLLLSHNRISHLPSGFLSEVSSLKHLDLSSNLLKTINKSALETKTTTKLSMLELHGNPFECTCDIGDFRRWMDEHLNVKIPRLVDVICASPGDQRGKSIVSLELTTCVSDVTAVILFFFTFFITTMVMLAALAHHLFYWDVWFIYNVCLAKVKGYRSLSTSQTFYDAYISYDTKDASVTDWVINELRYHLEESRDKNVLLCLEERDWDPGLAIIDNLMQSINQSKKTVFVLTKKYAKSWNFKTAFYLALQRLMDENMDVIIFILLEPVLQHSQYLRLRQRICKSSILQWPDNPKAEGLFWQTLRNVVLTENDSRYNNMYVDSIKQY
# ASSAY_PROCEDURE: TLR8 inhibition reporter assay (HEK-Blue SEAP);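 also: SEAP driven by IFN-β minimal promoter with five NF-κB and AP-1 sites, compounds tested 0.05 nM to 50 µM, 22 h incubation, inhibition relative to agonist plus DMSO wells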
# ASSAY_SETUP: read-out: TLR8 IC50; HEK-Blue cells overexpressing human TLR8, R848 15.9 μM stimulation, SEAP reporter
pIC50: −log10 of the molar value.
REPORTED_PROPERTY: pIC50

> print(dat)
                                   molecule                       experimental.system  recorded.result
1  COc1cc(-c2[nH]c3cnc(N4CCN(C(=O)CN(C)C)CC4)c(Cl)c3c2C(C)C)cn2ncnc12 [Example 304]  human TLR8 (Homo sapiens (Human), UniProt Q9NR97)             8.66
2  CNCC(=O)NC1CCN(c2cc3c(C(C)C)c(-c4cc(OC)c5ncnn5c4)[nH]c3cn2)CC1 [Example 339]  human TLR8 (Homo sapiens (Human), UniProt Q9NR97)             7.55
3  Cc1c(-c2[nH]c3cnc(C4CCC(NCC(C)(C)C)CC4)c(F)c3c2C(C)C)cn2ncnc2c1C (stereo not shown) [Example 234]  human TLR8 (Homo sapiens (Human), UniProt Q9NR97)             8.59
4  COc1cc(-c2[nH]c3cnc(N4CCC(NCC5(C)COC5)CC4)c(F)c3c2C(C)C)cn2ncnc12 [Example 67]  human TLR8 (Homo sapiens (Human), UniProt Q9NR97)             7.96
5  Cc1cc(-c2[nH]c3cnc(C4CCC(NC5COC5)CC4)c(F)c3c2C(C)C)cn2ncnc12 (stereo not shown) [Example 107]  human TLR8 (Homo sapiens (Human), UniProt Q9NR97)             8.35
6  COc1cc(-c2[nH]c3cnc(C4CCC(NC5COC5)CC4)cc3c2C(C)C)cn2ncnc12 (stereo not shown) [Example 330]  human TLR8 (Homo sapiens (Human), UniProt Q9NR97)             8.26
7  Cc1cc(-c2[nH]c3cnc(N4CCC(N5CCC5)CC4)c(F)c3c2C(C)C)cn2ncnc12 [Example 70]  human TLR8 (Homo sapiens (Human), UniProt Q9NR97)             9.11

FYI, the data here is from patent US11912703B2.
